- assaySystem: Recombinant human tyrosyl-DNA-phosphodiesterase 1 (Tdp1) (Homo sapiens, UniProt Q9NUW8)
- Sequence (Q9NUW8 whole entry): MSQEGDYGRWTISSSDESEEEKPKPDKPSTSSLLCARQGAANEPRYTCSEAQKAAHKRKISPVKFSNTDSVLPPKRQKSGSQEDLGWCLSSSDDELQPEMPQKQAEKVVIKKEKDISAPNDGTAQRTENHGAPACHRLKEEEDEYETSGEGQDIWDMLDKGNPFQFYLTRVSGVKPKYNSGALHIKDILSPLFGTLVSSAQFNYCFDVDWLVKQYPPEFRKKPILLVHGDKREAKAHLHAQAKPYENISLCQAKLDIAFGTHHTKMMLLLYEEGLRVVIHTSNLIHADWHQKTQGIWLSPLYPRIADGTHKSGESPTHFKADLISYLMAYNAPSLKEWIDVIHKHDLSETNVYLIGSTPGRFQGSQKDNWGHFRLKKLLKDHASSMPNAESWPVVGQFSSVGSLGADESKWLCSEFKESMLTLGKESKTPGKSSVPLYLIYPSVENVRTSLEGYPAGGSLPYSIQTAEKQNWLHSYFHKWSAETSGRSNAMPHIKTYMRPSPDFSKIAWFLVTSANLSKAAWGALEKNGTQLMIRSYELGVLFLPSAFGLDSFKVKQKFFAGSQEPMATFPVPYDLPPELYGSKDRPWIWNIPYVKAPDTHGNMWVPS
- protocolDescription: Tdp1 inhibition, removal of BHQ1 quencher from 3'-end of FAM-labelled oligonucleotide (fluorescence)
- testContext: 1.3 nM Tdp1, 50 nM oligonucleotide, pH 8.0; read-out: IC50 (concentration of an inhibitor that reduces an enzyme's activity by half) towards Tdp1
metricName: IC50 (nM)
Just the number in nM, nothing appended.

Ask: Returns the measured IC50 for the input molecule. Input: CC(=O)C1=C(O)C=C2Oc3c(-c4csc(N/N=C/c5ccc(Br)cc5)n4)c(O)c(C)c(O)c3C2(C)C1=O (stereo not shown)
Result: 26
